Target: T1, Ab-1
T1 construct: also called anti-CD28 scFv harbored in Ab-1
T1 sequence (heavy, as listed by the source, chain 1 of 2): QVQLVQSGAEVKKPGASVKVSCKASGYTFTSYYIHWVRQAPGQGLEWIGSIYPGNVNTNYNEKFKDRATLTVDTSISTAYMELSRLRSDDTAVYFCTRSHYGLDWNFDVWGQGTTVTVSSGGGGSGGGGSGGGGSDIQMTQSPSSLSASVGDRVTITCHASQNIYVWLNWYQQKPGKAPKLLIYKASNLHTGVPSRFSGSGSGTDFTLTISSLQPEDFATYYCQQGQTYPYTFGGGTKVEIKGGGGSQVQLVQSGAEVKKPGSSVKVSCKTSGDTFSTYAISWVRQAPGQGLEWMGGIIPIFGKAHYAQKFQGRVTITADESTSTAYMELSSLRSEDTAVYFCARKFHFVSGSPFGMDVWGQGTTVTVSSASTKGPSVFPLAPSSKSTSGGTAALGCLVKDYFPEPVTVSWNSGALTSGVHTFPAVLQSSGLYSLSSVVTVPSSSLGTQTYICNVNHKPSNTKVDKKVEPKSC
T1 sequence (light, as listed by the source, chain 2 of 2): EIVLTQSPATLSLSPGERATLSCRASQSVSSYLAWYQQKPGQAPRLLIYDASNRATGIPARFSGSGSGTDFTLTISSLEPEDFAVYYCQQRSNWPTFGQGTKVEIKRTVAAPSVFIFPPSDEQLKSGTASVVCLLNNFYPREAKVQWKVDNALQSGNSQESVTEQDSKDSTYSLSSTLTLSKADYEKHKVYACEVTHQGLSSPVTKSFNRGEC
Assay: BLI (Octet), 200 nM peptide, 100 nM Ab-1;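 also: association and dissociation phases tracked in real time, with kinetics fitted to a 1:1 interaction model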
No end group written: not given here.
propertyLabel: t1/2 (min)

- MDWCPRDLWVHCFA (cysteine pairing not given here; also: biotinylated, site not given here) [Peptide-1]: 9.8
- DDWCPRDLWVHCFA (cysteine pairing not given here; also: biotinylated, site not given here) [Peptide-5]: 4.2
- IDWCPRDLWVHCFA (cysteine pairing not given here; also: biotinylated, site not given here) [Peptide-10]: 3.1
- GDWCPRDLWVHCFA (cysteine pairing not given here; also: biotinylated, site not given here) [Peptide-8]: 3.9
- PDWCPRDLWVHCFA (cysteine pairing not given here; also: biotinylated, site not given here) [Peptide-14]: 3.4
- KDWCPRDLWVHCFA (cysteine pairing not given here; also: biotinylated, site not given here) [Peptide-12]: 4
- RDWCPRDLWVHCFA (cysteine pairing not given here; also: biotinylated, site not given here) [Peptide-3]: 4.9
- NDWCPRDLWVHCFA (cysteine pairing not given here; also: biotinylated, site not given here) [Peptide-4]: 4
- LDWCPRDLWVHCFA (cysteine pairing not given here; also: biotinylated, site not given here) [Peptide-11]: 4.5

Hey, just so you know, these numbers are from patent US20260274955A1.
